Experiment: Inhibition of rat serum BuChE using butyrylthiocholine iodide as substrate after 15 mins by Ellman method
Type: cell-free
measured_metric: IC50 (µM)
The answer is to be given in µM; state only the numeric part.

Any idea what IC50 was measured for "COc1ccccc1CN(C)CCCNC(=O)c1cc(=O)c2c(O)cccc2o1" ?
102

Field request: IC50 | item: "CCN(CCCCNC(=O)c1cc(=O)c2c(O)cc(N(C)C)cc2o1)Cc1ccccc1N(C)C"
149

Endpoint output: IC50 of "COc1cc(O)c2c(=O)cc(C(=O)NCCCN(C)Cc3ccccc3OC)oc2c1" . Value?
171

// returns reported IC50 for input "CCN(CCCNC(=O)c1cc(=O)c2c(O)cccc2o1)Cc1ccccc1OC"
93.4

# query: IC50 of entry "CCN(CCCCNC(=O)c1cc(=O)c2c(O)cc(OC)cc2o1)Cc1ccccc1"
128

Recorded IC50 for "CCN(CCCCCCNC(=O)c1cc(=O)c2c(O)cc(OC)cc2o1)Cc1ccccc1" , please?
53.5

Look at this compound and give its reported IC50. "CN(CCCNC(=O)c1cc(=O)c2c(O)cccc2o1)Cc1ccccc1"
120

Item under review: "COc1cc(O)c2c(=O)cc(C(=O)NCCCCN(C)Cc3ccccc3)oc2c1" . Reported IC50?
135

These entries and their values trace back to ChEMBL document CHEMBL3397027.
